Quick reference: protein stability index of the listed items.
B1: RAB40B (parent)
chain: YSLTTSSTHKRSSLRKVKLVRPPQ

Variants of: B1
Test: protein stability index of a GFP-peptide fusion (GPS, HEK-293T) (PSI 1-6); higher = more stable;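 also: lentivirally expressed fusions sorted by FACS into six bins by GFP to DsRed ratio, PSI derived from sequencing read proportions per bin multiplied by bin number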
Conditions: c terminus: a fixed tail appended
Field format: numeric only.

Below, 2 variants whose answers are already recorded.
| Mutant Name | Data Value |
| --- | --- |
| T8Y | 3 |
| T5M | 2.97 |

What protein stability index value was documented for this variant, H9F ?
2.91

Another variant: L14Y
3.06

Item: T5L
2.91

Try the variant P23N
2.96

Param item: S7D
2.94

What would you report for Y1Q ?
3.82

And what about the variant P22L ?
2.58

Now the same for T5A
3.48

Consider next the variant R15C in the same way.
2.81

Please answer likewise for Q24G
2.82
